Tested on: N. gonorrhoeae F89 (high-level cefixime and ceftriaxone resistance)
PROTOCOL SUMMARY: Disk diffusion assay, N. gonorrhoeae F89
Assay type: cell-based
TEST PARAMETERS: Neisseria gonorrhoeae, 0.2 μg per disc; disc 6 mm; read-out: diameter of the growth inhibition, F89
RECORDED ENDPOINT: zone of inhibition at 0.2 µg/disc (mm)
// units = mm; emit number, no label

Some solved entries appear below for comparison.
CC(CCc1ccc(-c2ccccc2)cc1)(C(=O)NO)C(C)(O)C(F)F (single isomer, unassigned) [Example 3 Isomer A] ... 18
C[C@@](O)(C(F)F)[C@H](NCc1ccc(-c2ccccc2)cc1)C(=O)NO ... 8
C[C@@](O)(C(F)F)[C@H](NCc1ccc(-c2ccc(OCCN3CCOCC3)cc2)cc1)C(=O)NO ... 0
CC(NCCCc1ccc(-c2ccccc2)cc1)(C(=O)NO)C(C)(O)C(F)F (stereo not drawn) ... 20
CC(CCn1ccc(-c2ccc(-n3nccn3)cc2)cc1=O)(C(=O)NO)C(C)(O)C(F)F (stereo not drawn) ... 7

// moving on: another record for zone of inhibition at 0.2 µg/disc
Quick one: zone of inhibition at 0.2 µg/disc for COc1ccc(-c2ccc(CN[C@H](C(=O)NO)[C@](C)(O)C(F)F)cc2)cc1 ?
0
